meta.source: patent US4400534A

- Tested on: prostaglandin-biosynthesis in 3T6 cells
- assay_procedure: Inhibition of prostaglandin-biosynthesis in cultured cells (3T6 cells from mouse fibroblasts)
- Type: cell-based
- condition_details: Mus musculus, Fibroblast; 3T6 cells; 2 hours contact, then arachidonic acid 5 μg/ml, 1 hour; prostaglandin E2 by radioimmunoassay; read-out: Inhibition of PG-biosynthesis enzyme activity, Culture cells I50
pIC50: −log10 of the molar value.
assay_endpoint: pIC50

> print(dat)
                                   molecule   val
1  C[C@H](C(=O)O)c1ccc(C[C@H]2CCC[C@@H]2O)cc1  6.60
2  COc1ccc2c(c1)c(CC(=O)O)c(C)n2C(=O)c1ccc(Cl)cc1 [IM, indomethacin, reference compound]  6.47
